Test system: MCF7
assay_remarks: Inhibition of MCF7 cell proliferation (mean of two experiments)
Format: functional, cell-based
study_conditions: Homo sapiens
readout_kind: pIC50
As a rule, pIC50 stands for the negative log10 of the concentration, concentration in M.

structure_notation: O=C(NO)c1ccc(-c2ccc(CNCCc3ccccc3)cn2)s1
study_system: MCF7
pIC50: 7.15
//
structure_notation: O=C(NO)c1ccc(-c2ccc(CCNCc3ccc4c(c3)OCO4)cn2)s1
study_system: MCF7
pIC50: 7.15

Pending compound:
The measured pIC50 associated with O=C(NO)c1ccc(-c2ccc(CNCCc3ccccc3F)cn2)s1 reads 7.05
